Test system: Saccharomyces cerevisiae
ASSAY_NAME: protein stability index of tFT-peptide fusion (C-terminal peptide) (PSI (0-1 scale)); higher = more stable (slower turnover);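 also: PSI is a weighted mean of sequencing reads over stability bins, variants kept only with over 10 reads, mCherry proximal and sfGFP distal, peptide attached via GGGS linker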
CONDITION_CONTEXT: genetic background: wild type; temperature: 30 C
# protein stability index annotations

- SEQUENCE_STRING: "FAIRMHCLIFRC"
  TESTED_ON: "Saccharomyces cerevisiae"
  protein stability index: 0.124
- SEQUENCE_STRING: "VLLLLGGIVCVM"
  TESTED_ON: "Saccharomyces cerevisiae"
  protein stability index: 0.229
- SEQUENCE_STRING: "SVAGFFLLLLLS"
  TESTED_ON: "Saccharomyces cerevisiae"
  protein stability index: 0.193
- SEQUENCE_STRING: "LLPFSLLDLLLC"
  TESTED_ON: "Saccharomyces cerevisiae"
  protein stability index: 0.404
- SEQUENCE_STRING: "GCLFASWPLAVC"
  TESTED_ON: "Saccharomyces cerevisiae"
  protein stability index: 0.198
- SEQUENCE_STRING: "FVFIFIRVFFFR"
  TESTED_ON: "Saccharomyces cerevisiae"
  protein stability index: 0.176
- SEQUENCE_STRING: "AFKRVFWALWWM"
  TESTED_ON: "Saccharomyces cerevisiae"
  protein stability index: 0.299

----------
System: Saccharomyces cerevisiae
ASSAY_NAME: protein stability index of tFT-peptide fusion (C-terminal peptide) (PSI (0-1 scale)); higher = more stable (slower turnover)
CONDITION_CONTEXT: genetic background: wild type; temperature: 30 C
PARAMETER: protein stability index

- SEQUENCE_STRING: "VVRLTALTNATV"
  PARAMETER: "protein stability index"
  QUANTITATIVE_RESULT: 0.671
- SEQUENCE_STRING: "LWFFVVVVVRWV"
  PARAMETER: "protein stability index"
  QUANTITATIVE_RESULT: 0.189
- SEQUENCE_STRING: "ITIRGLTGRFRQ"
  PARAMETER: "protein stability index"
  QUANTITATIVE_RESULT: 0.713
- SEQUENCE_STRING: "TAAHRASGEIAC"
  PARAMETER: "protein stability index"
  QUANTITATIVE_RESULT: 0.684
- SEQUENCE_STRING: "GVLTVVLQVGVV"
  PARAMETER: "protein stability index"
  QUANTITATIVE_RESULT: 0.393
- SEQUENCE_STRING: "KHDIEYRTQIKK"
  PARAMETER: "protein stability index"
  QUANTITATIVE_RESULT: 0.662
- SEQUENCE_STRING: "CREWNKAGWGNV"
  PARAMETER: "protein stability index"
  QUANTITATIVE_RESULT: 0.702
- SEQUENCE_STRING: "FPPPLPLSPPPP"
  PARAMETER: "protein stability index"
  QUANTITATIVE_RESULT: 0.746
- SEQUENCE_STRING: "LFSARRKSPTSL"
  PARAMETER: "protein stability index"
  QUANTITATIVE_RESULT: 0.708
- SEQUENCE_STRING: "PPSPPPPAPPRA"
  PARAMETER: "protein stability index"
  QUANTITATIVE_RESULT: 0.713
- SEQUENCE_STRING: "VCCSDSLCFVVS"
  PARAMETER: "protein stability index"
  QUANTITATIVE_RESULT: 0.601
- SEQUENCE_STRING: "TLPSPPPRPPPA"
  PARAMETER: "protein stability index"
  QUANTITATIVE_RESULT: 0.702
- SEQUENCE_STRING: "WWASFVGSFVGD"
  PARAMETER: "protein stability index"
  QUANTITATIVE_RESULT: 0.878
- SEQUENCE_STRING: "VAVYVGVGVSLG"
  PARAMETER: "protein stability index"
  QUANTITATIVE_RESULT: 0.423
